Origin of values: patent US20100022559A1

Assay: logP determination by HPLC on a reversed-phase column (C 18), EEC Directive 79/831 Annex V.A8
Assay type: physicochemical
Conditions: method marker [b]; isomer A / isomer B / isomer mixture as noted in the cell
As shown below, each of these compounds has a reported logP value.

- CC(=NOCC1(CON=C(C)c2cccc(C)n2)COC1)c1cccc(C)n1 [compound 19]: 2.45^[b]
- C=C(CON=C(C)c1cccc(C)n1)CON=C(N)c1nc(COC)c(C)c(COC)n1 [compound 183]: 1.92^[b]
- CC(=NOCCCON=C(C)c1ccccn1)c1ccccn1 [compound 31]: 2.67^[b]
- CC(=NOCCCCCCCCCCON=C(C)c1cccc(C)n1)c1cccc(C)n1 [compound 74]: 7.36^[b]
- C=C(CON=C(C)c1cccc(C)n1)CON=C(C)c1c(C)noc1C [compound 198]: 3.50^[b]
- C=C(CON=C(C)c1ccc2ccccc2n1)CON=C(C)c1ccc2ccccc2n1 [compound 63]: 6.51^[b]

Now look at this one.
Q: Which logP is listed for C=C(CON=C(C)c1ccc(C(F)(F)F)cn1)CON=C(C)c1ccc(C(F)(F)F)cn1 [Compound 61] ?
Ans: 6.18^[b]
